Target: C-C chemokine receptor type 2 (Homo sapiens, UniProt P41597)
Test: Inhibition of [125I]MCP1 binding to CCR2 expressed in CHO cells at 1 uM
Type: cell-based
Sequence (P41597 whole entry, looked up): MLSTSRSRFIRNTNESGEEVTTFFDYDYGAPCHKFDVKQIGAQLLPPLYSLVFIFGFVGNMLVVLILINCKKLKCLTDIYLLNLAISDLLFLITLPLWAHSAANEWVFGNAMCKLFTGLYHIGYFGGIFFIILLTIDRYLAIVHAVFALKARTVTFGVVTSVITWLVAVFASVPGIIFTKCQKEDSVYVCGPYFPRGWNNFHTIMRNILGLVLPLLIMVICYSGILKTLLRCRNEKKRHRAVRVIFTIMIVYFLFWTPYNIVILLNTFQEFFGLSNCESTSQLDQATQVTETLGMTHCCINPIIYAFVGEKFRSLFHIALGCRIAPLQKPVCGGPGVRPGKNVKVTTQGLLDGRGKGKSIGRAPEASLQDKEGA
measured-quantity: inhibition (%)
Answer format: numeric, % implied, no suffix.

Guide cases for inhibition, answers given:
1. C=CCN1CCC(N(CC[C@H](C(=O)NCc2cc(C(F)(F)F)cc(C(F)(F)F)c2)c2ccc(F)cc2)C(=O)OCc2ccccc2)CC1: 14
2. O=C(NCc1cc(C(F)(F)F)cc(C(F)(F)F)c1)[C@@H](CCN1CCN(c2ccccc2)CC1)c1ccc(F)cc1: 11

Enquiry: Name the reported inhibition value associated with the molecule O=C(NCc1cc(C(F)(F)F)cc(C(F)(F)F)c1)[C@@H](CCN1CC(c2ccccc2)C1)c1ccc(F)cc1
Return: 18

Enquiry: Please give the measured inhibition for this molecule: CC(CN1CCC(c2ccccc2)CC1)[C@H](CNCc1cc(C(F)(F)F)cc(C(F)(F)F)c1)c1ccc(F)cc1 (some centres undefined)
Return: 0

====

Target: C-C chemokine receptor type 2 (Homo sapiens, UniProt P41597)
Experiment: Inhibition of [125I]MCP1 binding to CCR2 expressed in CHO cells
Sequence (P41597 whole entry): as the sequence (P41597 whole entry, looked up) above
measured-quantity: pIC50
# pIC50 = -log10(concentration in molar units)

Enquiry: Return reported pIC50; argument: C[C@H]1CN(CC[C@H](CNCc2cc(C(F)(F)F)cc(C(F)(F)F)c2)c2ccc(F)cc2)CC[C@@H]1c1ccccc1
Return: 6.85

Enquiry: Please report the recorded pIC50 for C[C@](CCN1CCC(c2ccccc2)CC1)(CNCc1cc(C(F)(F)F)cc(C(F)(F)F)c1)c1ccc(F)cc1 .
Return: 5.97

Enquiry: I have this molecule here, C[C@H]1CN(CC[C@H](C(=O)NCc2cc(C(F)(F)F)cc(C(F)(F)F)c2)c2ccc(F)cc2)CC[C@@]12C=Cc1ccccc12 , and I need its recorded pIC50.
Return: 7.23

Enquiry: Give the measured pIC50 of CCC1CN(CC[C@H](C(=O)NCc2cc(C(F)(F)F)cc(C(F)(F)F)c2)c2ccc(F)cc2)CCC12C=Cc1ccccc12 (stereo not given in full) .
Return: 6.36

Enquiry: Bench note: what pIC50 did CC1CN(CC[C@H](C(=O)NCc2cc(C(F)(F)F)cc(C(F)(F)F)c2)c2ccc(F)cc2)CCC12C=Cc1ccccc12 (stereo not given in full) show?
Return: 7.35

Enquiry: Quick one: pIC50 of O=C(NCc1cc(C(F)(F)F)cc(C(F)(F)F)c1)[C@@H](CCN1CCC2(C=Cc3ccccc32)CC1)c1ccc(F)cc1 ?
Return: 7.10

Enquiry: Would you mind telling me what pIC50 value was observed for O=C(NCc1cc(C(F)(F)F)cc(C(F)(F)F)c1)[C@@H](CCN1CCC(c2ccsc2)CC1)c1ccc(F)cc1 ?
Return: 6.80

Enquiry: Return reported pIC50; argument: CC(C[C@H](C(=O)NCc1cc(C(F)(F)F)cc(C(F)(F)F)c1)c1ccc(F)cc1)N1CCC(c2ccccc2)CC1 (stereo not given in full)
Return: 5.82

Enquiry: Which measured pIC50 value corresponds to C[C@@H]1CN(CC[C@H](C(=O)NCc2cc(C(F)(F)F)cc(C(F)(F)F)c2)c2ccc(F)cc2)CC[C@]12C=Cc1ccccc12 ?
Return: 6.92

Enquiry: Item O=C(NCc1cc(C(F)(F)F)cc(C(F)(F)F)c1)[C@H](CCN1CCC(c2ccccc2)CC1)c1ccc(F)cc1 has what recorded pIC50?
Return: 6.03

Enquiry: Any idea what its pIC50 is? The molecule is O=C(NCc1cc(C(F)(F)F)cc(C(F)(F)F)c1)[C@@H](CCN1CCCCC1)c1ccc(F)cc1
Return: 5.96

Enquiry: Fill in: pIC50 of O=C(NCc1cc(C(F)(F)F)cc(C(F)(F)F)c1)[C@@H](CCCN1CCCCC1)c1ccc(F)cc1 is ___
Return: 6.00

Enquiry: Which pIC50 is reported for this molecule? CN(C)CCN[C@H](C(=O)NCc1cc(C(F)(F)F)cc(C(F)(F)F)c1)c1ccc(F)cc1
Return: 6.14

Enquiry: # query: pIC50 of entry O=C(NCc1cc(C(F)(F)F)cc(C(F)(F)F)c1)[C@@H](CCCN1CCC(c2ccccc2)CC1)c1ccc(F)cc1
Return: 5.96

Enquiry: Entry O=C(NCc1cc(C(F)(F)F)cc(C(F)(F)F)c1)[C@@H](CCN1CCC2(CCc3ccccc32)CC1)c1ccc(F)cc1 : reported pIC50 = ?
Return: 6.49

====

Assay: Half life in rat at 3 mg/kg
Format: ADME, organism-based
Set-up: dose 3 mg/kg
Details: in vivo
measured-quantity: half-life

Enquiry: Tell me the measured half-life of O=C(NCc1cc(C(F)(F)F)cc(C(F)(F)F)c1)[C@@H](CCN1CCC2(C=Cc3ccccc32)CC1)c1ccc(F)cc1 , please.
Return: 8 h

====

Biological target: Substance-P receptor (Homo sapiens, UniProt P25103)
Sequence (P25103 whole entry): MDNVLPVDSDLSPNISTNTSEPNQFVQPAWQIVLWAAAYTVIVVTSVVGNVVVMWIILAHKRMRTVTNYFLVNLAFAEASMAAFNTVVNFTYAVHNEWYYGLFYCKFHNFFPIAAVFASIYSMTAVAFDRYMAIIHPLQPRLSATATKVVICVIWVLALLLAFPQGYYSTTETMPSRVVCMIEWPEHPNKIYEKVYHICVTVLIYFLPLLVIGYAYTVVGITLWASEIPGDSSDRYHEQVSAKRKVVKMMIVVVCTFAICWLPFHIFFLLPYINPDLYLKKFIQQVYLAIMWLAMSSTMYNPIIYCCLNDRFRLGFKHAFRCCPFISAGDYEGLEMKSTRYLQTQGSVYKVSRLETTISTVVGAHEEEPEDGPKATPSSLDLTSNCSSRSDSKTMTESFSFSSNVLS
Items are presented alongside their recorded pIC50.
The meaning of pIC50 here: minus log10 of the concentration in molar units.

1. O=C(NCc1cc(C(F)(F)F)cc(C(F)(F)F)c1)[C@@H](CCN1CCC2(C=Cc3ccccc32)CC1)c1ccc(F)cc1: 7.30

Please turn your attention to the following entry.
Enquiry: Which pIC50 reading was recorded for the molecule C[C@H]1CN(CC[C@H](C(=O)NCc2cc(C(F)(F)F)cc(C(F)(F)F)c2)c2ccc(F)cc2)CC[C@@]12C=Cc1ccccc12 ?
Return: 7.55

====

Experiment: Oral bioavailability in rat at 3 mg/kg
Assay type: ADME, organism-based
Details: in vivo
measured-quantity: bioavailability (%)
The response must be a number in % with no trailing unit.

Enquiry: Which bioavailability value belongs to O=C(NCc1cc(C(F)(F)F)cc(C(F)(F)F)c1)[C@@H](CCN1CCC2(C=Cc3ccccc32)CC1)c1ccc(F)cc1 ?
Return: 38

====

This listing pairs compounds with measured pIC50.
Molecular target: C-C chemokine receptor type 2 (Homo sapiens, UniProt P41597)
Test: Inhibition of [125I]MCP1 binding to CCR2 expressed in CHO cells
// pIC50 is dimensionless: -log10 of concentration (M)

1) O=C(NCc1cc(C(F)(F)F)cc(C(F)(F)F)c1)[C@@H](CCN1CCC(c2ccccc2)CC1)c1ccc(F)cc1: 6.82
2) CC1CN(CC[C@H](C(=O)NCc2cc(C(F)(F)F)cc(C(F)(F)F)c2)c2ccc(F)cc2)CCN1c1ccccc1 (stereo partly drawn): 6.11

Turning now to a further compound:
Enquiry: Hi! What's the reported pIC50 for C[C@@H]1CN(CC[C@H](CNCc2cc(C(F)(F)F)cc(C(F)(F)F)c2)c2ccc(F)cc2)CC[C@@H]1c1ccccc1 on C-C chemokine receptor type 2 (Homo sapiens, UniProt P41597)?
Return: 6.15

====

Biological target: C-C chemokine receptor type 2 (Homo sapiens, UniProt P41597)
Assay: Inhibition of [125I]MCP1 binding to CCR2 expressed in CHO cells at 1 uM
Type: cell-based
measured-quantity: inhibition (%)
Reply numerically in %, unit not repeated.

1. O=C(NCc1cc(C(F)(F)F)cc(C(F)(F)F)c1)[C@@H](CCN1CCC(c2ccccc2)C1)c1ccc(F)cc1 (stereo not given in full): 44
2. O=C(NCc1cc(C(F)(F)F)cc(C(F)(F)F)c1)[C@@H](CCN1CCCC(c2ccccc2)CC1)c1ccc(F)cc1 (stereo not given in full): 3
3. O=C(NCc1cc(C(F)(F)F)cc(C(F)(F)F)c1)[C@@H](CCN1CC[C@@H]2c3ccccc3CC[C@H]2C1)c1ccc(F)cc1: 6
4. O=C(NCc1cc(C(F)(F)F)cc(C(F)(F)F)c1)[C@@H](CCN1CCC(C2CCCCC2)CC1)c1ccc(F)cc1: 20

Could you now consider this next compound?
Enquiry: Which measured inhibition belongs to O=C(NCc1cc(C(F)(F)F)cc(C(F)(F)F)c1)[C@@H](CCN1CCCC(Cc2ccccc2)C1)c1ccc(F)cc1 (stereo not given in full) , tested on C-C chemokine receptor type 2 (Homo sapiens, UniProt P41597)?
Return: 43

====

Assay: Plasma clearance in rat at 3 mg/kg
Assay type: ADME, organism-based
Parameters: dose 3 mg/kg
measured-quantity: clearance (L/h/kg)
Form entry: value (L/h/kg) — number only.

Enquiry: Requested read-out: clearance. Entry: O=C(NCc1cc(C(F)(F)F)cc(C(F)(F)F)c1)[C@@H](CCN1CCC2(C=Cc3ccccc32)CC1)c1ccc(F)cc1
Return: 0.36

Ref: ChEMBL document CHEMBL1146856
